Assay: Acute oral toxicity in rats
Settings: rat, in vivo, male wistar rats, confidence limit 1,05l-1, 790 mg/kg
measured.metric: LD50 (mg/kg)
Numbers only, in mg/kg.

# input Which value of LD50 has been reported for c1ccc(C(c2ccccc2)N2CCN(CCCc3nc4ccccn4n3)CC2)cc1 [the present compound] in the records?
# output 1370

====

Experiment: Acute oral toxicity in mice
Type: in vivo
Settings: mouse, in vivo, po, female ddN mice; confidence limit 418-563 mg/kg
measured.metric: LD50 (mg/kg)
One number for each entry, in mg/kg.

# input Which value of LD50 has been reported for "c1ccc(C(c2ccccc2)N2CCN(CCCc3nc4ccccn4n3)CC2)cc1" in the records?
# output 485
